All values here come from ChEMBL document CHEMBL1127978.

Test: Time taken for maximum plasma concentration in dog
Format: ADME, organism-based, Canis lupus familiaris
quantity: Tmax
# output: numeric value plus its unit

Query: Fill blank: measured Tmax of the compound "CC(C)[C@@H]1[C@H](OC(=O)N[C@@H](Cc2ccccc2)[C@H](O)CN2CCN(Cc3cccc(O)c3)C[C@H]2C(=O)NC(C)(C)C)CCS1(=O)=O" is ____.
Reply: 25 min

----------
Molecular target: Human immunodeficiency virus type 1 protease (Human immunodeficiency virus 1, UniProt Q72874)
// NB: equality with 300 nM counts as rule not met; only IC50 strictly below is rule met

Consider the worked cases shown below.
{"chem-smiles": "CC(C)(C)NC(=O)[C@@H]1CN(Cc2cccnc2)CCN1C[C@@H](O)[C@H](Cc1ccccc1)NC(=O)O[C@H]1CCOC1", "label-value": "rule not met"}
{"chem-smiles": "CC(C)(C)NC(=O)[C@@H]1CN(Cc2ccccc2O)CCN1C[C@@H](O)[C@H](Cc1ccccc1)NC(=O)O[C@H]1CCOC1", "label-value": "rule met"}
{"chem-smiles": "CC(C)(C)NC(=O)[C@@H]1CN(C(=O)c2ccccc2)CCN1C[C@@H](O)[C@H](Cc1ccccc1)NC(=O)O[C@H]1CCOC1", "label-value": "rule not met"}
{"chem-smiles": "CC(C)(C)NC(=O)[C@@H]1CN(CCCc2ccccc2)CCN1C[C@@H](O)[C@H](Cc1ccccc1)NC(=O)O[C@H]1CCOC1", "label-value": "rule met"}

Let's switch to this compound now.
Query: IC50 under 300 nM? Item: "CC(C)(C)NC(=O)[C@@H]1CN(C(=O)c2ccncc2)CCN1C[C@@H](O)[C@H](Cc1ccccc1)NC(=O)O[C@H]1CCOC1"
Reply: rule met
